Cited source for all entries: the METLIN SMRT retention time set (Domingo-Almenara et al. 2019)

# method-description: gradient 5% acetonitrile 3 min, to 50% in 2 min, to 85% in 15 min, held 3 min, 100 µL/min
# run-parameters: column: Zorbax Extend-C18 2.1 x 50 mm; eluents: water / acetonitrile, 0.1% formic acid
readout-type: RP-LC retention time

Briefly, RP-LC retention time measured for `COc1cccc(Cn2c(=O)c3sccc3n(Cc3nc(-c4cccc(C)c4)no3)c2=O)c1` : 1160 s

The value of RP-LC retention time measured for the molecule `COc1ccc(NC(=O)Cc2csc3nc(-c4cccc(Br)c4)cn23)cc1` turned out to be 937 s

`Cc1noc([C@@H]2CC(F)(F)CN2C(=O)c2cnco2)n1` yielded RP-LC retention time of 667 s

Memo: `Cc1cccn2cc(-c3cccc(NS(=O)(=O)c4ccc(C(C)(C)C)cc4)c3)nc12` , reported RP-LC retention time: 792 s

Please fill in: RP-LC retention time reported for `COc1ccc(NC(=O)Cn2cc(C(=O)N3CCCCC3)c(=O)c3ccc(C)nc32)cc1` = 713 s

---

# method-description: gradient 5% acetonitrile 3 min, to 50% in 2 min, to 85% in 15 min, held 3 min, 100 µL/min
# run-parameters: column: Zorbax Extend-C18 2.1 x 50 mm; eluents: water / acetonitrile, 0.1% formic acid
Listing of entries alongside the reported RP-LC retention time.
Just the number please, in s, no unit attached.

The compound listed as O=C(NCCc1cccs1)C1CCCN(c2nc3ccsc3c(=O)n2Cc2ccccc2)C1 (stereo not given) has a reported RP-LC retention time of 949

Query `CC(C)Cc1nnc(NC(=O)C2CCN(C(=O)c3cccc(F)c3)CC2)s1` yields RP-LC retention time of 780

Kindly note the recorded RP-LC retention time for Cc1cnc(C(=O)N2CCC(c3noc(-c4cccnc4)n3)C2)cn1 (stereo not given) , which is 628

Just so you know, measured RP-LC retention time for `CCOc1cc(C(=O)Nc2c(-c3ccccc3)nc3ccccn23)cc(OCC)c1OCC` came out at 759

# input for lookup
So, `CCc1noc([C@@H]2CC(F)(F)CN2C(=O)CCc2c(C)noc2C)n1` ? Its RP-LC retention time was 775

---

# method-description: gradient 5% acetonitrile 3 min, to 50% in 2 min, to 85% in 15 min, held 3 min, 100 µL/min
# run-parameters: column: Zorbax Extend-C18 2.1 x 50 mm; eluents: water / acetonitrile, 0.1% formic acid
# Lookup of reported RP-LC retention time keyed by entry
API: value field is a number in s; no unit string.

Kindly note the recorded RP-LC retention time for CC(=O)N1CCc2cc(N3CC(C(=O)Nc4cccc(F)c4)CC3=O)ccc21 (stereo not given) , which is 710

The reported RP-LC retention time of the compound `COc1ccc(N2CCN(C(=O)c3ccc(-c4ccsc4)nc3)CC2)cc1` was 1160

Value of RP-LC retention time reported for the compound `O=C(c1ccc(N2C(=O)CCS2(=O)=O)cc1)N1CCN(c2ccccn2)CC1` is 548

Noted for `COc1ccc(NC(=O)C2CCN(c3nnc(-c4ccc(OC)cc4)o3)CC2)cc1` : its RP-LC retention time reads 824

response.value for `Cn1ncc2c(N3CCSCC3)nc(C(=O)NCc3ccc(F)cc3)nc21` (field: RP-LC retention time) = 823

Continuing:
Memo: `O=S(=O)(c1ccc(F)cc1)N1CCC(n2cnnc2-c2ccccc2)CC1` , reported RP-LC retention time: 774

According to the records, this compound COc1ccc(-c2noc(C3CCCN3C(=O)c3ccccc3F)n2)cc1 (stereo not given) displays RP-LC retention time of 952

Sample `C#CCSc1nc2ccccc2c2nc(-c3cccnc3)nn12` ; RP-LC retention time observed: 998

Noted for `O=C(NCc1cccnc1)c1nnc(-c2ccc(S(=O)(=O)N3CCCC3)cc2)o1` : its RP-LC retention time reads 616

Lab note: `c1csc(-c2[nH]ncc2CN2CCN(c3cnn4cnnc4c3)CC2)c1` gave RP-LC retention time of 835

# RP-LC retention time (compound: COc1cccc(C(=O)CC2(O)C(=O)Nc3c(C)cccc32)c1 (stereo not given) ) is 728

According to the records, this compound `Cc1ccccc1CNC(=O)CCc1nnc2c3cc(-c4ccc(F)cc4)nn3ccn12` displays RP-LC retention time of 811

Short answer for `CCc1ccc(NC(=O)CSc2ccc(N3CCC(C(=O)NC(C)C)CC3)nn2)cc1` : RP-LC retention time was 680

Data point: `COc1ccc(-c2noc(Cn3ccnc3C)n2)cc1OC` ; RP-LC retention time = 589

// field: RP-LC retention time; key: `CCCOc1ccc(-c2cn3ccccc3n2)cc1[N+](=O)[O-]` ; value = 681

---

# method-description: gradient 5% acetonitrile 3 min, to 50% in 2 min, to 85% in 15 min, held 3 min, 100 µL/min
# run-parameters: column: Zorbax Extend-C18 2.1 x 50 mm; eluents: water / acetonitrile, 0.1% formic acid
readout-type: RP-LC retention time

For this molecule ( `O=C(O)c1ccccc1Nc1cccc2c1C(=O)c1cccc(Nc3ccccc3C(=O)O)c1C2=O` ), measured RP-LC retention time is 1020 s

Lab book: RP-LC retention time of `O=c1ccc(S(=O)(=O)N2CCCC2)cn1Cc1cccc(F)c1` noted as 826 s

Data point: `Cc1ccc(F)c(NS(=O)(=O)c2cc(-c3[nH]ncc3C(=O)N3CCCC3)oc2C)c1` ; RP-LC retention time = 710 s

Entry `CCCOC(=O)c1cccc(Nc2nc(-c3cccnc3)nc3ccccc23)c1` ; RP-LC retention time = 889 s

Continuing:
The recorded RP-LC retention time for entry `Cc1ccc(C(=O)N2C[C@@H](Oc3ccccc3)C[C@H]2C(=O)NC2CC2)s1` equals 790 s

For reference, reported RP-LC retention time for CC1CCc2nn(CC(=O)Nc3cc(F)ccc3F)cc2C1 (stereo not given) stands at 983 s

Quick note, RP-LC retention time for CC(C)c1cc(=O)n2c(n1)SCC2CC(=O)Nc1cccc(F)c1 (stereo not given) landed at 763 s

Note to self: RP-LC retention time recorded for `O=C(Oc1ccc[nH]c1=O)c1cccc(Cl)c1` was 756 s

Looking up `N#CC1(C(=O)NCc2nc(-c3ccccc3)no2)CC1` , I found its RP-LC retention time recorded as 729 s

The molecule listed as `CCOc1ccccc1NS(=O)(=O)c1cc(-c2c(CC)noc2NC(C)=O)ccc1C` shows RP-LC retention time equal to 846 s

---

This listing pairs compounds with measured RP-LC retention time.
# method-description: gradient 5% acetonitrile 3 min, to 50% in 2 min, to 85% in 15 min, held 3 min, 100 µL/min
# run-parameters: column: Zorbax Extend-C18 2.1 x 50 mm; eluents: water / acetonitrile, 0.1% formic acid
Quick note: give the figure in s, leave out the unit.

Per the records, this compound ( `CCN1CCCc2cc(C(=O)NCc3cccc(OC)c3)sc21` ) has RP-LC retention time equal to 962

Entry COC(=O)C1C(=O)C2=C(CC1C)NC(=O)CC2c1cccc(OC)c1 (centres undefined) , RP-LC retention time reported as 726

In plain terms, `CCCc1noc(-c2cccnc2N2CCCN(C(=O)Nc3cc(C)ccc3C)CC2)n1` has a documented RP-LC retention time of 995

Entry `COCCCNC(=O)c1ccc2c(c1)nc1n2CCN(C2CCCCC2)C1=O` , RP-LC retention time reported as 1240

Item: `CCN1CCC(N(Cc2cccs2)C(=O)Nc2cccc(Cl)c2)CC1` | RP-LC retention time: 679

Next:
RP-LC retention time recorded for this compound, `CCCCn1c(=O)c2c(nc3n2CCCCN3c2ccc(OCC)cc2)n(C)c1=O` , is 1050

Looking up `Cc1ccc(C)c(NC(=O)N2CCC(c3nc(C(=O)N4CCOCC4)c(C)o3)CC2)c1` , I see its RP-LC retention time listed as 712

Noted for `Cc1cc(C(=O)N(C)C)c(C)n1-c1ccc(O)cc1` : its RP-LC retention time reads 661

Data point: CCn1cc(S(=O)(=O)N2CCCC2c2noc(CO)n2)cn1 (centres undefined) ; RP-LC retention time = 619

// sample `O=C(CCC1CCN(c2cc(NC3CC3)ncn2)CC1)NCc1ccc(F)cc1F` , its RP-LC retention time was 684

Value of measured RP-LC retention time for the entry `Cc1cc(NC(=O)c2cccc(N3C(=O)CCC3=O)c2)n(-c2nc3ccc(F)cc3s2)n1` : 706

The reported RP-LC retention time of the compound `COc1ccc(OC)c(NC(=O)N2CCC(n3c(C(F)(F)F)nc4cccnc43)CC2)c1` was 895

# RP-LC retention time of O=C(c1ccncn1)N1CC(n2cnnc2C2CCCO2)C1 (centres undefined) = 580

The compound identified as `CC1=C(c2ccccc2)S(=O)(=O)N=C1N1CCCN(C(=O)c2ccc(F)c(F)c2)CC1` registered its RP-LC retention time at 900

Input `Cc1ccn2c(NC(=O)Cc3ccccc3)c(-c3ccc(F)cc3)nc2c1` . Output RP-LC retention time: 669

The reported RP-LC retention time of the compound CC(NC(=O)C1CCN(C(=O)c2ncn3c2COC(c2ccccc2)C3)CC1)c1ccccc1 (centres undefined) was 754

Measured RP-LC retention time of `Cc1cccc(Sc2nccnc2N2CCC(C(=O)N3CCCCCC3)CC2)c1` : 1130

# compound `Cc1ccc(C)c(S(=O)(=O)N2CCC(N3CCN(Cc4ccccc4)C(=O)C3=O)CC2)c1` ; its RP-LC retention time = 861

Per the records, this compound ( `CCOC(=O)c1ccc(NC(=O)Cn2c(=O)cc(-c3nc(C)no3)c3ccccc32)cc1` ) has RP-LC retention time equal to 903
